system-under-test: Sodium-dependent dopamine transporter (Rattus norvegicus)
assay-procedure: Discrimination ratio of compound is the ratio of inhibitory activity against [3H]dopamine uptake over [3H][…] binding
Please use T whenever Discrimination ratio is not below 4, and F whenever it is.

These recorded examples may help you get a feel for the data.
compound: NCC1C2CCC(C2)C1c1ccc(Cl)cc1 (stereo in doubt; 15c)
system-under-test: Sodium-dependent dopamine transporter (Rattus norvegicus)
group: T
--
compound: NCC1C2CCC(C2)C1c1ccccc1 (stereo in doubt; 15a)
system-under-test: Sodium-dependent dopamine transporter (Rattus norvegicus)
group: F
--
compound: NCC1C2CCC(C2)C1c1ccc(Cl)c(Cl)c1 (stereo in doubt; 9d)
system-under-test: Sodium-dependent dopamine transporter (Rattus norvegicus)
group: T
--
compound: CN(C)CC1C2CCC(CC2)C1c1ccccc1 (stereo in doubt; 6a)
system-under-test: Sodium-dependent dopamine transporter (Rattus norvegicus)
group: T

Lookup: Can COc1ccccc1C1C2CCC(C2)C1CN (stereo in doubt; 11e) be said to have Discrimination ratio at or above 4?
Found: T

Lookup: Can NCC1C2CCC(CC2)C1c1ccc(Cl)c(Cl)c1 (stereo in doubt; 7d) be said to have Discrimination ratio at or above 4?
Found: F
